- target_or_test_system: thrombin (Homo sapiens, UniProt P00734)
- measurement_protocol: Thrombin-inhibitory activity in plasma samples (ecarin-activated)
- Format: biochemical
- condition_summary: citrate plasma, ecarin activation, fluorogenic thrombin substrate; read at about 70% of maximum signal (about 12 min); in some cases means
quantity_measured: IC50 (nM)

Example entries and their recorded answers appear below.
compound="COc1cc(C(=O)N2CC3(CC3)NC(=O)C2C)cn2nc(NCc3cccc(Cl)c3)nc12 (single isomer, unassigned)" reading=39
compound="COc1cc(C(=O)N2CC3CCN3C(=O)C2C)cn2nc(N[C@H](C)c3cccc(Cl)c3)nc12 (single isomer, unassigned)" reading=33
compound="CCC1C(=O)NC(C)CN1C(=O)c1cc(OC)c2nc(NCc3cccc(Cl)c3)nn2c1 (single isomer, unassigned)" reading=24

a = COc1cc(C(=O)N2CC(C)(C)OCC2(C)CO)cn2nc(NCc3cccc(Cl)c3)nc12 (racemic) [Example 8]
b = COc1cc(C(=O)N2CC3CCN3C(=O)C2C)cn2nc(NC(CF)c3cccc(Cl)c3)nc12 (single isomer, unassigned)
c = COc1cc(C(=O)N2CC(C)(C)OCC2C2(O)CC2)cn2nc(NCc3cccc(Cl)c3)nc12 (single isomer, unassigned)
Lookup: Task field, ranking: reported IC50, descending order. Return the labels ranked in the requested order, please.
Found: c, a, b
(c: 90 nM, a: 29 nM, b: 5.9 nM)

---

- target_or_test_system: thrombin (Homo sapiens)
- measurement_protocol: Thrombin-inhibitory activity in plasma samples (ecarin-activated)
- Assay type: biochemical
- condition_summary: citrate plasma, ecarin activation, fluorogenic thrombin substrate; read at about 70% of maximum signal (about 12 min); in some cases means
quantity_measured: IC50 (nM)

Would you please look over these solved cases?
compound=COc1cc(C(=O)N2CC(C)(C)OC[C@H]2CCO)cn2nc(NCc3cccc(Cl)c3)nc12 readout_units=nM reading=24
compound="COc1cc(C(=O)N2C[C@H](OCC(F)F)CC2CO)cn2nc(NCc3cccc(Cl)c3)nc12 (single isomer, unassigned)" readout_units=nM reading=74

A = COc1cc(C(=O)N2CC(C)OCC23CC(O)C3)cn2nc(NCc3cccc(Cl)c3)nc12 (single isomer, unassigned) [Example 21]
B = CC[C@@H]1COC(C)(CCO)CN1C(=O)c1cc(OC)c2nc(NCc3cccc(Cl)c3)nn2c1 (stereo partly shown) [Example 69]
Lookup: Please state the entry with greater IC50 among A and B . # reply format: chosen label
Found: A
(A: 67 nM, B: 39 nM)

---

- target_or_test_system: thrombin (Homo sapiens, UniProt P00734)
- measurement_protocol: Measurement of the thrombin inhibition in buffer
- Format: biochemical
- condition_summary: human thrombin 0.06 nmol/l in Tris buffer pH 7.4, 22° C., substrate Boc-Asp(OBzl)-Pro-Arg-AMC; in some cases means of individual determinations
quantity_measured: IC50 (nM)

molecule="COc1cc(C(=O)N2CC(C)(C)OCC2CC(C)O)cn2nc(NCc3cccc(Cl)c3)nc12 (single isomer, unassigned) [Example 49]" target_or_test_system="thrombin (Homo sapiens, UniProt P00734)" readout_units=nM reading=19

1 = COc1cc(C(=O)N2CC(C)(C)OCC2C(C)(C)O)cn2nc(NCc3cccc(Cl)c3)nc12 (single isomer, unassigned)
2 = COc1cc(C(=O)N2CC(C)(CCO)OCC2(C)C)cn2nc(NCc3cccc(Cl)c3)nc12 (racemic) [Example 31]
Lookup: IC50 comparison. Which is larger, 1 or 2 ? // return label of chosen record
Found: 1
(1: 25 nM, 2: 11 nM)
